For each entry below, report its protein stability index value.
B1: FAM116A (parent)
chain: TVHEVDIFRCFCPVFLHSQMLWEL

- Variants of: B1
- PROTOCOL SUMMARY: protein stability index of a GFP-peptide fusion (GPS, HEK-293T) (PSI 1-6); higher = more stable;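 also: lentivirally expressed fusions sorted by FACS into six bins by GFP to DsRed ratio, PSI derived from sequencing read proportions per bin multiplied by bin number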
- STUDY CONDITIONS: c terminus: a fixed tail appended

Query: Please look up its protein stability index: `TVHEVDIFRCFCPVFLHGQMLWEL`
Reply: 2.83

Query: Try this variant too: `TVHEVDIFRCFCPVFLHEQMLWEL`
Reply: 1.56

Query: Proceed to `TVHEVDRFRCFCPVFLHSQMLWEL`
Reply: 1.94

Query: Moving on to the next variant: `TVNEVDIFRCFCPVFLHSQMLWEL`
Reply: 3.08

Query: Another variant: `TVHEVDIFFCFCPVFLHSQMLWEL`
Reply: 2.13

Query: Also, `TVHEVDCFRCFCPVFLHSQMLWEL` please.
Reply: 2.28

Query: Cool, now `TVHEKDIFRCFCPVFLHSQMLWEL`
Reply: 1.93

Query: Param item: `TVHEVIIFRCFCPVFLHSQMLWEL`
Reply: 2.2

Query: What about `TVHEVDIFRCFCPVFLHSQLLWEL` ?
Reply: 3.06

Query: Field entry: `TVHEVDIFRCFCPVFLHSAMLWEL`
Reply: 3.23

Query: Quick one: `TVHQVDIFRCFCPVFLHSQMLWEL`
Reply: 1.79

Query: Okay, and `TVHEVDIFRCFCKVFLHSQMLWEL` ?
Reply: 2.83

Query: Continue with `TVHEVDIHRCFCPVFLHSQMLWEL`
Reply: 1

Query: // next record `TVHEVDIFSCFCPVFLHSQMLWEL`
Reply: 3.12

Query: Next variant up: `TVHEVDIFRCFCPVFLHSSMLWEL`
Reply: 2.74

Query: Can you handle `TVHEVDIFRCFCPVFLHSQMLWWL` next?
Reply: 2.4

Query: Next: `TVHEVDIFRCFCLVFLHSQMLWEL`
Reply: 1

Query: Entry `TVHKVDIFRCFCPVFLHSQMLWEL` please
Reply: 3.86

Query: Query `YVHEVDIFRCFCPVFLHSQMLWEL` next
Reply: 2.93

Query: And what about the variant `TVHEVDIFRCFCPVFLHSQMLHEL` ?
Reply: 1.52

Query: Ok, now `TEHEVDIFRCFCPVFLHSQMLWEL`
Reply: 1.04

Query: Now give it for `TVHEVDIFACFCPVFLHSQMLWEL` too.
Reply: 2.82
